Attribution: PubChem BioAssay AID1159580

experiment: chemical genetic growth profiling, strain panel (AID 1159580);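 note: tested at 20 µM; growth read once vehicle control cultures reached saturation at 30 °C; 1 = growth at the plate median or of vehicle wells; lower values mean less growth of the strain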; conditions: S. cerevisiae deletion strains, growth OD, locus YMR223W, strain ubp8, hits give low values
In all, about 5,500 compounds went through this assay and about 2,000 (36%) were called active. About 18% were inconclusive and are not listed. The list shows a part of the results.
RESULT_TYPE: normalized growth
One number for each entry.

Solved cases (5 shown):
1) CC(=O)O[C@@H]1CC[C@@]2(C)C(CC[C@]3(C)C2CC=C2C4CC(C)(C)CC[C@]4(C(=O)O)CC[C@]23C)C1(C)C (stereo partly drawn)    0.985
2) COc1c(CC(=O)c2cc3c(cc2O)OC(C)(C)C(O)C3)ccc2c1C=CC(C)(C)O2 (stereo not drawn)    1.01
3) CC(=O)O[C@H]1CC[C@@]2(C)C(CC[C@]3(C)C2C(=O)C=C2C4[C@@H](C)[C@H](C)CC[C@]4(C(=O)O)CC[C@]23C)C1(C)C (stereo partly drawn)    0.985
4) CO[C@@]12[C@@H]3NC3CN1C1=C(C(=O)C(N)=C(C)C1=O)[C@@H]2COC(N)=O (stereo partly drawn)    0.977
5) CC(C)(Oc1ccc(CCNC(=O)c2ccc(Cl)cc2)cc1)C(=O)O    1.01

Give normalized growth for all compounds that follow.
1. CC(=O)NCc1c(I)c(NC(C)=O)c(I)c(C(=O)O)c1I
2. CC1(C)CC[C@]2(C(=O)O)CC[C@]3(C)C(=CCC4[C@@]5(C)CC[C@H](O)[C@@](C)(CO)C5CC[C@]43C)C2C1 (stereo partly drawn)
3. CC(=O)O[C@H]1CC[C@@]2(C)C(CC[C@]3(C)C2CC=C2C4CC(C)(C)CC[C@]4(C)CC[C@]23C)C1(C)C (stereo partly drawn)

Result:
1.02
1
1.02
